System: SUM52PE
Assay: GRmax, 72 h; higher = less effect;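 further: breast cell lines in 384-well plates, nine doses across a 10^4 range, Dye Drop imaging of viable cells vs DMSO and time-zero plates, GR 0 means no net growth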
result type: GRmax, 72 h (GR)
Numbers only here, please. The scale is GR.

Guide cases for GRmax, 72 h, answers given:
O=C1NC(=O)[C@@H](c2cn3c4c(cccc24)CCC3)[C@@H]1c1c[nH]c2ccccc12 [Tivantinib/ARQ197] (max 10 µM)	-0.354
CN(C)C/C=C/C(=O)Nc1ccc(C(=O)N2CCC[C@@H](Nc3ncc(Cl)c(-c4c[nH]c5ccccc45)n3)C2)cc1 [THZ531] (max 1 µM)	-0.17
NC1(C(=O)N[C@@H](CCO)c2ccc(Cl)cc2)CCN(c2nc[nH]c3nccc2-3)CC1 [AZD5363] (max 10 µM)	0.18

State its GRmax, 72 h for this molecule: CO[C@H]1C[C@@H]2CC[C@@H](C)[C@@](O)(O2)C(=O)C(=O)N2CCCC[C@H]2C(=O)O[C@H]([C@H](C)C[C@@H]2CC[C@@H](OCCO)[C@H](OC)C2)CC(=O)[C@H](C)/C=C(\C)[C@@H](O)[C@@H](OC)C(=O)[C@H](C)C[C@H](C)/C=C/C=C/C=C/1C [Everolimus] (max 10 µM)
0.553

Give the reported value of GRmax, 72 h for this record: CC[C@@H]1C(=O)N(C)c2cnc(Nc3ccc(C(=O)N[C@H]4CC[C@H](N5CCN(CC6CC6)CC5)CC4)cc3OC)nc2N1C(C)C [Volasertib/BI6727] (max 1 µM)
-0.409

Give reported GRmax, 72 h value for COc1cccc(OCCCN)c1-c1cc(Nc2cnc(C#N)cn2)n[nH]1
-0.292

Return GRmax, 72 h for the following molecule: CN(C)C/C=C/C(=O)Nc1ccc(C(=O)Nc2cccc(Nc3cc(-c4c[nH]c5ccccc45)ncn3)c2)cc1 [THZ-P1-2] (max 10 µM)
-0.598

Quote GRmax, 72 h reported for CC1(N)CCN(c2cnc(-c3cccc(Cl)c3Cl)c(N)n2)CC1 [SHP099] (max 10 µM) please.
0.937

Give me measured GRmax, 72 h, please, for this molecule: CC(C)n1nc(-c2ccc3oc(N)nc3c2)c2c(N)ncnc21 [INK128/MLN0128] (max 3.162 µM)
-0.161

# return recorded GRmax, 72 h for entry COc1cc2nccc(Oc3ccc(NC(=O)C4(C(=O)Nc5ccc(F)cc5)CC4)cc3)c2cc1OC [Cabozantinib] (max 10 µM)
0.0751

Input CC(=O)Nc1cccc(-n2c(=O)n(C3CC3)c(=O)c3c(Nc4ccc(I)cc4F)n(C)c(=O)c(C)c32)c1 (max 1 µM) , output reported GRmax, 72 h.
0.577

Given the molecule Cc1nn(C)c(COc2ccc(N3CCN(S(=O)(=O)N(C)C)CC3)cc2)c1-c1cccc2c(CCCOc3cccc4ccccc34)c(C(=O)O)n(CCN3CCOCC3)c12 (max 10 µM) , write its reported GRmax, 72 h.
0.373

Supply reported GRmax, 72 h belonging to this molecule: C[C@@H]1COCCN1c1cc(C2([S@](C)(=N)=O)CC2)nc(-c2cc[nH]c3nccc2-3)n1 [AZD6738] (max 10 µM)
-0.174

Dear colleague, please send me the reported GRmax, 72 h for CC(=O)c1c(C)c2cnc(Nc3ccc(N4CCNCC4)cn3)nc2n(C2CCCC2)c1=O (max 3.162 µM) when you can.
0.346

Annotate the molecule CN(C)C(=O)c1cc2cnc(Nc3ccc(N4CCNCC4)cn3)nc2n1C1CCCC1 [LEE011/Ribociclib] (max 10 µM) with its measured GRmax, 72 h.
0.528
